Provide the recorded Trimeric HA Binding: RLU for the entries that follow.
SYSTEM_UNDER_TEST: recombinant soluble homotrimeric HA, A/duck/Yangzhou/02/05 H8N4 (Influenza A virus A/duck/Yangzhou/02/2005(H8N4))
ASSAY_DETAILS: microarray, transfection SN IgG, trimeric HA
PROTOCOL_CONDITIONS: remark: other sources report otherwise
Answers are plain numbers, in RLU.

Consider the following illustrative entries.
BINDER	MEASURE_NAME	VALUE_OBSERVED
TCN-553 (5261_C18) (antibody, V domains shown) VH: QVQVVQSGTEVKKPGSSVKVSCQTSGGRFMSYAITWVRQAPGQGLEWMGGIVPVFGTANYAQKFQGRVTITTDDSTRTAYMELSSLRSEDTAVYYCGFRYGSGYGFDSWGQGTLVTVSS VL: EIVLTQSPGTLSLSPGERATLSCRASQSVSSSYLAWYQKKPGQAPRLLIYGASTRATGIPDRFTGSGSGTDFTLSISRLEPEDFAVYYCQHFGTSVFTFGGGTKVEIK	Trimeric HA Binding: RLU	12500
TCN-557 (5081_A04) (antibody, V domains shown) VH: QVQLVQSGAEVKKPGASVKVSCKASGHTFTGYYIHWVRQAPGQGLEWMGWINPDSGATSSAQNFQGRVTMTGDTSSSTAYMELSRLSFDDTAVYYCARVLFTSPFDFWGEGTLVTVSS VL: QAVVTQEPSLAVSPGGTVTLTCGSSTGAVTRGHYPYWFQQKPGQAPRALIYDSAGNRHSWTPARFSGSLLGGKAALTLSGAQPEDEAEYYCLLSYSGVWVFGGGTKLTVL	Trimeric HA Binding: RLU	24000

# context switch: different binder, same Trimeric HA Binding: RLU
Give Trimeric HA Binding: RLU for TCN-547 (5092_F11) (antibody, V domains shown) VH: QVQLQESGPGLVKPSQTLSLTCTVSGDSISSVDHYWSWIRQHPVKGLEWIGFMYYSASTYYNPSLKSRVTISTDTSKNQFSLRLSSVTAADTAVYYCARGTCAGDCSLHYYYYGLDVWGQGRTVTVSS VL: DIQMTQSPSSLSASVGDRVTITCRASQSISSYLNWYQHKPGKAPKVLMYAVSILQSGVPSRFSGSGSGADFTLTISSLQPEDFATYYCQQSYSSPLTFGGGTKVEIK
3340
